targetDesc: Renin (Homo sapiens) (UniProt P00797)
Sequence (whole entry): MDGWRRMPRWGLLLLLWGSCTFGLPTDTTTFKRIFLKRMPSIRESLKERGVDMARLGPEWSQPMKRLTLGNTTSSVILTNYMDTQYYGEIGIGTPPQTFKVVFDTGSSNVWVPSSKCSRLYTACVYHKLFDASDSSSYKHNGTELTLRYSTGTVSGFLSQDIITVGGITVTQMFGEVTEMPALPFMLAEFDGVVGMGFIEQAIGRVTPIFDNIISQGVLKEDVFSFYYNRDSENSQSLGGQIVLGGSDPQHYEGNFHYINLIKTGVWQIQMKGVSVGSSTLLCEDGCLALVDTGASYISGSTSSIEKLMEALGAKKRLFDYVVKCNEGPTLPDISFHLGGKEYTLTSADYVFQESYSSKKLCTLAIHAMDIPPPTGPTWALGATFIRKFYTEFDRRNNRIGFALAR
protocolDetails: Inhibition of human renal renin at the concentration of 10e-5 M.
Decide by inhibition: equal to or exceeding 70% means YES, less means NO.

* CC(C)C[C@H](NC(=O)[C@H](C)NC(=O)[C@H](Cc1ccccc1)NC(=O)OC(C)(C)C)[C@@H](O)CSC(C)C | YES
* CC(C)C[C@@H](NC(=O)[C@H](C)NC(=O)[C@H](Cc1ccccc1)NC(=O)OC(C)(C)C)[C@H](O)CSCc1ccccc1 | NO
* CC(C)C[C@@H](NC(=O)[C@H](C)NC(=O)[C@H](Cc1ccccc1)NC(=O)OC(C)(C)C)[C@H](O)CSCCc1ccccc1 | YES
* CC(C)C[C@@H](NC(=O)[C@H](C)NC(=O)[C@H](Cc1ccccc1)NC(=O)OC(C)(C)C)[C@H](O)CSc1ccc(Br)cc1 | NO
* CC(C)C[C@@H](NC(=O)[C@H](C)NC(=O)[C@H](Cc1ccccc1)NC(=O)OC(C)(C)C)[C@H](O)CSC1CCCC1 | YES
* CC(C)C[C@@H](NC(=O)[C@H](Cc1c[nH]cn1)NC(=O)[C@H](Cc1ccccc1)NC(=O)OC(C)(C)C)[C@H](O)CS(=O)(=O)C(C)C | YES
